test system: KAI3 (IL-2 2.5 ng/mL); assay: percent inhibition of viability; higher = more inhibition; settings: 72 h; 1000 nM;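 note: normalised to DMSO-only wells as negative and benzethonium chloride as positive control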
Readout Type: percent inhibition of viability (%)
Numbers only, in %.

CC[C@H](NC(=O)[C@H](C)NC)C(=O)N1C[C@@H](O)C[C@H]1Cc1c(-c2[nH]c3cc(F)ccc3c2C[C@@H]2C[C@H](O)CN2C(=O)[C@H](CC)NC(=O)[C@H](C)NC)[nH]c2cc(F)ccc12 [Birinapant] (max concentration tested 1000 nM) :: 15.7
Cc1sc2c(c1C)C(c1ccc(Cl)cc1)=N[C@@H](CC(=O)OC(C)(C)C)c1nnc(C)n1-2 [(+)JQ1] (max concentration tested 10000 nM) :: 47.9
O=C(Nc1cccnc1)N1CCC(Cc2cccc(Oc3ccc(C(F)(F)F)cn3)c2)CC1 [PF-3845] (max concentration tested 10000 nM) :: 0.3
CC(C)[C@H]1C(=O)N[C@@H](CCCNC(=N)N)C(=O)NCC(=O)N[C@@H](CC(=O)O)C(=O)N[C@H](Cc2ccccc2)C(=O)N1C [Cilengitide] (max concentration tested 10000 nM) :: -7.41

Proceeding to the next compound to report its percent inhibition of viability.
Answer with the recorded percent inhibition of viability of Nc1cc(C(F)(F)F)c(-c2cc(N3CCOCC3)nc(N3CCOCC3)n2)cn1 [Buparlisib] (max concentration tested 10000 nM) only. 43

Data provenance is the supplement of paper PMC5908809.
